Task for the reader: assign each of the following substances its reported MBIC.
No end group written: not given here.
The answer is to be given in µg/mL; state only the numeric part.

# value lookup — system S. aureus clinical strain 005S biofilm, readout MBIC, item ILRWPWWPWRRK-NH2 [Omiganan TFA^−]
2

MBIC of KRRWPWWPWRLI-NH2 [Retro-omiganan TFA^−] on S. aureus clinical strain 005S biofilm?
2

What value of MBIC on S. aureus clinical strain 005S biofilm does ILRWPWWPWRRK-NH2 [Omiganan AcO^−] have?
1

Param readout = MBIC; param system = S. aureus clinical strain 005S biofilm; param query = ILRWPWWPWRRK-NH2 [Omiganan Cl^−] ; response: value
1

Just for reference, paper PMC12055641 is where these values come from.
